# TARGET_OF_ASSAY: T1, human CD24 on cells (human, UniProt P25063 27-59)
# T1 chain (looked up): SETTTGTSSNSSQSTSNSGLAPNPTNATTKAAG
# ASSAY_OVERVIEW: cell-based or functional assay
// reported EC50 of Phagocytosis assay, IgG1, Kappa; OVCAR3 per item
Quick note: unit goes after the number.

# input Item 90-D11B6, IgG1, Kappa (antibody, V domains shown) VH: EVQLQQSGPELVKPGASVRISCKASGYSFTGYYMNWVKQSPEKNLEWIGEINPITGGSTYNQKFVAKATLTVDRSSSTAYMQLKSLTSEDSAVYYCTRRDYDTSLDYWGQGTTLTVSS VL: DVQITQSPSYLAASPGETITINCRASKSISKYLAWYQEKPGKTIKLLIYAGSTLQSGIPSRFSGSGYGTDFTLTISSLEPEDFAMYYCQQHNEYPLTFGAGTKLELK has what recorded EC50 of Phagocytosis assay, IgG1, Kappa; OVCAR3?
# output 0.59 µg/mL

# input Item 80-F10A6, IgG1, Kappa (antibody, V domains shown) VH: EVQLQQSGPVLVNPGASVKISCKASGYSFTGYYMNWVKQSPEKSLEWIGEVNPITGDTTYSQNFKAKTTLTVDRSSSTAYMQLKSLTSEDSAVYYCTRRDYGTSLDYWGQGTTLTVSS VL: DVQITQSPSYLAASPGETITIHCRASKSISRYLAWYQEKPGKINTLLIYAGSTLHLGIPSRFSGSGSGTDFTLTISSLELEDFAMYYCQQHNEYPITFGAGTKLELK has what recorded EC50 of Phagocytosis assay, IgG1, Kappa; OVCAR3?
# output 2.23 µg/mL

# input Item 45-H1E4, IgG1, Kappa (antibody, V domains shown) VH: QIQLVQSGPELKKPGETVKISCKASGYTFTTYGMSWMKQAPGKGLKWMGWINTYSGVPAYADDFKGRFAFSLDTSASTAYLQINNLKNEDTATYFCARSGYPWSPHSYSTDYWGQGISVTVSS VL: DVLLTQTPLSLPVSLGDQASISCKSSQSIVHSNGNTYLEWYLQKPGQSPKRLIYKVSNRFSGVPDRFSGSGSGTDFTLKISRVEAEDLGVYYCFQGSHVPWTFGGGTKLEIK has what recorded EC50 of Phagocytosis assay, IgG1, Kappa; OVCAR3?
# output 0.59 µg/mL
